Reference source for all entries: patent US7772271B2

Catalogue of melting point values

>>> experimental_result("CC(OC(=O)Nc1ccc(-c2c(C#N)c3ccc(OC4CCOCC4)cc3n2C2CCC2)cc1)c1ccccc1 (stereo not shown) [Compound 2618]")
"96 to 98 °C"

Ask | Reported melting point for N#Cc1c(-c2ccc(NS(=O)(=O)c3ccccc3)cc2)n(C2CCC2)c2cc(OC3CCOCC3)ccc12 [Compound 3091] : what is it?
Reply | 231 to 233 °C

Ask | Also check CCCS(=O)(=O)Nc1ccc(-c2c(C#N)c3ccc(Oc4nccnc4C#N)cc3n2C2CC2)c(C)c1 [Compound 3305]
Reply | 225 to 228 °C

Ask | Record: CCn1c(-c2ccc(N3CCCS3(=O)=O)cc2)c(C#N)c2ccc(N3CCN(C(=O)c4ccccc4)CC3)cc21 [Compound 1358]
Reply | 260 to 261 °C

Ask | Record: CC(C)NC(=O)Nc1c(F)cc(-c2c(C#N)c3ccc(OCCF)cc3n2C2CCC2)cc1F [Compound 3041]
Reply | 224 to 229 °C

Ask | Also C[C@@H](OC(=O)Nc1ccc(-c2c(C#N)c3ccc(-c4ccc(Cl)cn4)cc3n2C2CCC2)cc1)C1CC1 [Compound 3001] ?
Reply | 111 to 122 °C

Ask | And then CC(NC(=O)Nc1ccc(-c2c(C#N)c3ccc(Oc4ncccn4)cc3n2C2CCC2)cc1)c1ccc(F)cc1 (stereo not shown) [Compound 2710] , what is it?
Reply | 240 to 242 °C

---

Catalogue of melting point readings, one per entry.

>>> experimental_result("COCCOc1ccc2c(C#N)c(-c3ccc(NC(=O)OC(C)C4CC4)cc3)n(C3CCC3)c2c1 (stereo not drawn)")
"192 to 193 °C"

Ask | For the compound shown here, "Cc1nccnc1Oc1ccc2c(C#N)c(-c3ccc(NC(=O)O[C@H](C)C4CC4)cc3)n(C3CCC3)c2c1" , give the reported melting point.
Reply | 201 to 202 °C

Ask | What do you get for "N#Cc1c(-c2ccc(NS(=O)(=O)C3CC3)cc2)n(CC2CC2)c2cc(OC3CCOCC3)ccc12" ?
Reply | 99 to 102 °C

Ask | Please answer likewise for "CC(C)OC(=O)Nc1ccc(-c2c(C#N)c3ccc(N4CCCC4)cc3n2C2CCC2)cc1"
Reply | 241 to 244 °C

---

assay_readout: melting point

Study these solved cases before continuing.
>>> experimental_result("CC(OC(=O)Nc1ccc(-c2c(C#N)c3ccc(OC4CCOCC4)cc3n2C2CCC2)cc1)C1CCC1 (stereo not shown)")
"198 to 199 °C"
>>> experimental_result("CCN(CC)C(=O)c1ccc2c(c1)c(C#N)c(-c1ccc(NC(=O)NC(C)C)cc1)n2C1CCC1")
"250 °C (dec.)"
>>> experimental_result("CCCNC(=O)Oc1ccc(-c2c(C#N)c3ccc(OC4CCOCC4)cc3n2CC2CC2)cc1")
"147 to 148 °C"
>>> experimental_result("CC1CCc2cc(-c3c(C#N)c4ccc(Oc5ncccn5)cc4n3C3CCC3)ccc2NC1=O (stereo not shown)")
"233 to 235 °C"
>>> experimental_result("CCS(=O)(=O)Nc1ccc(-c2c(C#N)c3ccc(C(=O)N4CCOCC4)cc3n2C2CCC2)cc1")
"220 to 222 °C"

Ask | # query: melting point of entry "CC(C)Nc1ccc(-c2c(C#N)c3ccc(Oc4nccnc4C#N)cc3n2C2CC2)cc1"
Reply | 224 to 226 °C

Ask | Another compound to check: "CC(C)n1c(-c2ccc(NS(=O)(=O)Cc3ccc(C(F)(F)F)cc3)cc2)c(C#N)c2ccc(OC(F)F)cc21"
Reply | 224 to 225 °C
